Cited source for all entries: patent US20190337924A1

- subject.of.test: F876L mutant Androgen Receptor (AR-F876L) (Homo sapiens, UniProt P10275, F877L)
- Construct: expressed in transfected cells; host or cells: LNCaP
- Sequence (P10275 whole entry F877L): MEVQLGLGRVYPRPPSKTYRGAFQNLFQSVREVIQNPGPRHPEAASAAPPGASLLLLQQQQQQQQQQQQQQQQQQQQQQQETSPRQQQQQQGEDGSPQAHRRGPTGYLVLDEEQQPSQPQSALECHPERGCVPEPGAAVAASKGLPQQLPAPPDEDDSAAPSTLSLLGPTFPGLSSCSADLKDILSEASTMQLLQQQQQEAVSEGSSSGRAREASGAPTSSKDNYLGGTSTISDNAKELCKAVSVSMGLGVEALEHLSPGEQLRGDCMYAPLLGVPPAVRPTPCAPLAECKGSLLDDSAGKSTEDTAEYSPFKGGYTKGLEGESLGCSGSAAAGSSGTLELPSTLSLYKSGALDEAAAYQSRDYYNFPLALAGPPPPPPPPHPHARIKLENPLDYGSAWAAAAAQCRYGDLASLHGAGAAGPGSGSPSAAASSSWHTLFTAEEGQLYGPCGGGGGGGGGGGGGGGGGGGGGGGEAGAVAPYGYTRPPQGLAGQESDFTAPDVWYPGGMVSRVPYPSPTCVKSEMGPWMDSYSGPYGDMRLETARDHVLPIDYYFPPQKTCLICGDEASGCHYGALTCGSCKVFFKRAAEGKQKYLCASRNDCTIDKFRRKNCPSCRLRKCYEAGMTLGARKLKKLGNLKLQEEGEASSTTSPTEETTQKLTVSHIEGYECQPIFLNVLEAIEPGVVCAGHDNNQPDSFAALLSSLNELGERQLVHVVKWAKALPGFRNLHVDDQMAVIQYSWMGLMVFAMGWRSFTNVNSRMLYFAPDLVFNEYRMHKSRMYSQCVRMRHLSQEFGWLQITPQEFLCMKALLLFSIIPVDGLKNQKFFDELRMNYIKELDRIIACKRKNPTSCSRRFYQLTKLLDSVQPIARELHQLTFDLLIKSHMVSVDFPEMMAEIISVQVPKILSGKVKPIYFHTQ
- experiment: AR reporter assay, LNCaP-AR-F876L ANT (antagonist mode)
- Type: cell-based
- reported.conditions: read-out: LNCaP-AR-F876L ANT MAX % Inh
Structures can show the parent of a compound that is named as a salt.
For each entry below, report its Emax value.
Unit % implied. Number only.

[ask] Complete the entry with Emax for COc1cc(N2C(=O)C3(CCC3)N(c3ccc(OC4CCN(C)CC4)cc3)C2=S)ccc1C#N [Compound 19]
[reply] 101

[ask] Complete the entry with Emax for CC1(C)C(=O)N(c2ccc(C#N)c(Cl)c2)C(=S)N1c1ccc(OC2CCNCC2)nc1 [Compound 9, hydrochloride]
[reply] 100

[ask] For the compound Cc1cc(N2C(=O)C3(CCC3)N(c3ccc(OC4CCN(C)CC4)nc3)C2=S)ccc1C#N [Compound 18] , report Emax.
[reply] 99.8

[ask] Please give the documented Emax of COc1cc(N2C(=O)C3(CCC3)N(c3ccc(OC4CCN(C)CC4)nc3)C2=S)ccc1C#N [Compound 20]
[reply] 100

[ask] Identify measured Emax corresponding to CN1CCC(Oc2ccc(N3C(=S)N(c4ccc(C#N)c(Cl)c4)C(=O)C34CCC4)cn2)CC1 [Compound 24, hydrochloride]
[reply] 99.8

[ask] Tell us which Emax value is on record for CN1CCC(Oc2ccc(N3C(=S)N(c4ccc(C#N)c(Cl)c4)C(=O)C3(C)C)cn2)CC1 [Compound 10, hydrochloride]
[reply] 101

* * *

Provide the recorded Emax for the entries that follow.
- subject.of.test: wild-type Androgen Receptor (AR-wt) (Homo sapiens)
- Construct: expressed in transfected cells; host or cells: LNCaP
- Sequence (P10275 whole entry): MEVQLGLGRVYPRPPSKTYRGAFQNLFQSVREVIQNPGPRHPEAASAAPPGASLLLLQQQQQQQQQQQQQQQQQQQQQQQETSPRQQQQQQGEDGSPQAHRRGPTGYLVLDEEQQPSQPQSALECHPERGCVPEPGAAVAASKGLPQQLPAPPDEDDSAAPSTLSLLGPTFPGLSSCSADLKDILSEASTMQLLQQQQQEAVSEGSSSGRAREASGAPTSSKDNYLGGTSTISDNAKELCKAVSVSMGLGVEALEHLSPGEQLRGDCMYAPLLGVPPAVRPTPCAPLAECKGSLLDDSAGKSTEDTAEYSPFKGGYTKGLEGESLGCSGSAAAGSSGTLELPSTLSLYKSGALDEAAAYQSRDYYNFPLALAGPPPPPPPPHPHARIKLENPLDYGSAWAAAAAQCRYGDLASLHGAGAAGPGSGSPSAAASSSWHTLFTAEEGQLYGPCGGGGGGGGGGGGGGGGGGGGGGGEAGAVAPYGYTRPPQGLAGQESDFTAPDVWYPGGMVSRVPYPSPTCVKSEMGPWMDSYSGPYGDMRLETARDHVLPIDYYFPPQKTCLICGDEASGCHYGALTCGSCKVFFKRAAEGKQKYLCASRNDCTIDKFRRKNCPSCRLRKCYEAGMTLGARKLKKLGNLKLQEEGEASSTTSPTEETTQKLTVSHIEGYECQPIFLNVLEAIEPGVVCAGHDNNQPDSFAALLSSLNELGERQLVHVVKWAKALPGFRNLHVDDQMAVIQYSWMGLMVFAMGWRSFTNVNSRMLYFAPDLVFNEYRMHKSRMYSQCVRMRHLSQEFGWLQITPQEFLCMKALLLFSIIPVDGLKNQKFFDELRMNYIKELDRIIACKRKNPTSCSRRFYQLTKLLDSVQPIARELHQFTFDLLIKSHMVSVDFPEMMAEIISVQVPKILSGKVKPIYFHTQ
- experiment: AR reporter assay, LNCaP-AR-wt AG (agonist mode)
- Format: cell-based
- reported.conditions: read-out: LNCaP-AR-wt AG MAX % Stim
Counter-ions that a name gives are not always drawn.
Field format: number, assumed %, no unit text.

[ask] Look up and report measured Emax for this entry: `N#Cc1ccc(N2C(=O)C3(CCC3)N(c3cnc(OC4CCNCC4)nc3)C2=S)cc1C(F)(F)F`
[reply] -0.2

[ask] Report Emax for N#Cc1ccc(N2C(=O)C3(CCC3)N(c3ccc(OC4CCNCC4)nc3)C2=S)cc1Cl [Compound 23, hydrochloride]
[reply] 0.9

[ask] Specify Emax for CC1(C)C(=O)N(c2ccc(C#N)c(Cl)c2)C(=S)N1c1ccc(OC2CCNCC2)cc1 [Compound 7, hydrochloride] and stop.
[reply] 0

[ask] Recall and state the measured Emax for `N#Cc1ccc(N2C(=O)C3(CCC3)N(c3ccc(OC4CCNCC4)cc3)C2=S)cc1Cl` .
[reply] 0.1

[ask] Read off the recorded Emax for `Cc1cc(N2C(=O)C3(CCC3)N(c3ccc(OC4CCN(C)CC4)nc3)C2=S)ccc1C#N`
[reply] 0.6

[ask] Give the reported Emax for this compound. CN1CCC(Oc2ccc(N3C(=S)N(c4ccc(C#N)c(Cl)c4)C(=O)C3(C)C)cc2)CC1 [Compound 8, hydrochloride]
[reply] 0.1

[ask] Return value of Emax for input CC1(C)C(=O)N(c2ccc(C#N)c(Cl)c2)C(=S)N1c1ccc(OC2CCNCC2)nc1 [Compound 9, hydrochloride] , no commentary.
[reply] -0.2

[ask] Item CN1CCC(Oc2ccc(N3C(=S)N(c4ccc(C#N)c(C(F)(F)F)c4)C(=O)C3(C)C)cc2)CC1 [Compound 2, hydrochloride] : provide Emax
[reply] -0.2

* * *

- subject.of.test: F876L mutant Androgen Receptor (AR-F876L) (Homo sapiens, UniProt P10275, F877L)
- Construct: expressed in transfected cells; host or cells: LNCaP
- experiment: AR reporter assay, LNCaP-AR-F876L ANT (antagonist mode)
- Assay type: cell-based
- reported.conditions: read-out: LNCaP-AR-F876L ANT MAX % Inh
Structures can show the parent of a compound that is named as a salt.
parameter: Emax (%)
Please give a number only; it is taken to be in %.

[ask] Fill in reported Emax for this entry: CC1(C)C(=O)N(c2ccc(C#N)c(Cl)c2)C(=S)N1c1ccc(OC2CCNCC2)cc1 [Compound 7, hydrochloride]
[reply] 101

[ask] Retrieve Emax measured for CN1CCC(Oc2ccc(N3C(=S)N(c4ccc(C#N)c(C(F)(F)F)c4)C(=O)C3(C)C)cc2)CC1 [Compound 2, hydrochloride] and print it.
[reply] 101

[ask] Give recorded Emax. CN1CCC(Oc2ccc(N3C(=S)N(c4ccc(C#N)c(C(F)(F)F)c4)C(=O)C34CCC4)cc2)CC1 [Compound 12]
[reply] 101

[ask] Annotate the compound CN1CCC(Oc2ncc(N3C(=S)N(c4ccc(C#N)c(C(F)(F)F)c4)C(=O)C34CCC4)cn2)CC1 [Compound 16] with its measured Emax.
[reply] 101

[ask] Return the recorded Emax value; entry: CN1CCC(Oc2ncc(N3C(=S)N(c4ccc(C#N)c(C(F)(F)F)c4)C(=O)C3(C)C)cn2)CC1 [Compound 6]
[reply] 101

[ask] Given the compound N#Cc1ccc(N2C(=O)C3(CCC3)N(c3ccc(OC4CCNCC4)cc3)C2=S)cc1Cl [Compound 21] , write its reported Emax.
[reply] 104
